src = ChEMBL document CHEMBL1781968

Test system: Staphylococcus aureus
measurement protocol: Antibacterial activity against methicillin-resistant Staphylococcus aureus ATCC 33591 by NCCLS method
Format: functional, organism-based
Please note: IC50 exactly at 3 µg/mL is Not fulfilled. Only values below 3 µg/mL get Fulfilled.

Exam item: Answer whether the compound "C[n+]1cccc(N(CCCCCC2CCCCC2)c2ccccc2)c1.[I-]" has IC50 strictly less than 3 µg/mL
Marked response: Not fulfilled

Exam item: Given "C[n+]1cccc(N(CCCCCC2CCCCC2)c2cccc(C(F)(F)F)c2)c1.[I-]" , is recorded IC50 strictly lower than 3 µg/mL?
Marked response: Fulfilled

Exam item: Is IC50 strictly under 3 µg/mL for the entry "Cc1ccc(N(CCCCCC2CCCCC2)c2ccc[n+](C)c2)cc1.[I-]" ?
Marked response: Fulfilled

Exam item: Decide: IC50 of "C[n+]1cccc(N(CCCCCC2CCCCC2)c2cccc(Cl)c2)c1.[I-]" strictly below 3 µg/mL?
Marked response: Fulfilled

Exam item: Does this compound meet the criterion IC50 < 3 µg/mL? "C[n+]1cccc(N(CCCCCC2CCCCC2)c2ccc(C(F)(F)F)cc2)c1.[I-]"
Marked response: Fulfilled

Exam item: Say whether its IC50 is strictly beneath 3 µg/mL. Entry: "Cc1ccccc1N(CCCCCC1CCCCC1)c1ccc[n+](C)c1.[I-]"
Marked response: Fulfilled

Exam item: Quick check: does "CCc1ccc(N(CCCCCC2CCCCC2)c2ccc[n+](C)c2)cc1.[I-]" have IC50 under 3 µg/mL?
Marked response: Fulfilled

Exam item: Is the reported IC50 for "C[n+]1cccc2c1c1cc(Cl)ccc1n2CCCCCC1CCCCC1.[I-]" strictly below 3 µg/mL?
Marked response: Fulfilled

Exam item: Criterion: IC50 strictly below 3 µg/mL. Is it met by "CSc1ccc2c(c1)c1c(ccc[n+]1C)n2CCCCCC1CCCCC1.[I-]" ?
Marked response: Fulfilled

Exam item: Bench note: check whether "COc1cccc(N(CCCCCC2CCCCC2)c2ccc[n+](C)c2)c1.[I-]" shows IC50 below 3 µg/mL
Marked response: Not fulfilled

Exam item: Below 3 µg/mL on IC50? Entry C[n+]1c2ccccc2cc2[nH]c3ccccc3c21.[I-] [CRYPTOLEPTINE IODIDE]
Marked response: Not fulfilled

Exam item: Quick check: does "C[n+]1cccc(N(CCCCCC2CCCCC2)c2ccc(C#N)cc2)c1.[I-]" have IC50 under 3 µg/mL?
Marked response: Not fulfilled

Exam item: Consider the compound "Cc1cccc(N(CCCCCC2CCCCC2)c2ccc[n+](C)c2)c1.[I-]" . Is its IC50 strictly less than 3 µg/mL?
Marked response: Fulfilled

Exam item: Criterion: IC50 strictly below 3 µg/mL. Is it met by "C[n+]1cccc2c1c1cc(F)ccc1n2CCCCCC1CCCCC1.[I-]" ?
Marked response: Fulfilled

Exam item: Given the entry "C[n+]1cccc2c1c1cc(C#N)ccc1n2CCCCCC1CCCCC1.[I-]" , would its reported IC50 be below 3 µg/mL?
Marked response: Not fulfilled

Exam item: Given "C[n+]1cccc2c1c1cccc(Cl)c1n2CCCCCC1CCCCC1.[I-]" , is recorded IC50 strictly lower than 3 µg/mL?
Marked response: Fulfilled

Exam item: Criterion: IC50 strictly below 3 µg/mL. Is it met by "C[n+]1cccc(N(CCCCCC2CCCCC2)c2ccccc2Cl)c1.[I-]" ?
Marked response: Fulfilled

Exam item: Take the compound "C[n+]1cccc(N(CCCCCC2CCCCC2)c2ccccc2C#N)c1.[I-]" and say whether its IC50 is less than 3 µg/mL.
Marked response: Not fulfilled
